The origin of these recorded values is patent US20180193413A1.

Recorded pKi, one value per entry.
- system_under_test: T1, T163R HPA mutant (human, UniProt P04746 16-511)
- T1 construct: it may be shifted against the precursor entry
- T1 sequence: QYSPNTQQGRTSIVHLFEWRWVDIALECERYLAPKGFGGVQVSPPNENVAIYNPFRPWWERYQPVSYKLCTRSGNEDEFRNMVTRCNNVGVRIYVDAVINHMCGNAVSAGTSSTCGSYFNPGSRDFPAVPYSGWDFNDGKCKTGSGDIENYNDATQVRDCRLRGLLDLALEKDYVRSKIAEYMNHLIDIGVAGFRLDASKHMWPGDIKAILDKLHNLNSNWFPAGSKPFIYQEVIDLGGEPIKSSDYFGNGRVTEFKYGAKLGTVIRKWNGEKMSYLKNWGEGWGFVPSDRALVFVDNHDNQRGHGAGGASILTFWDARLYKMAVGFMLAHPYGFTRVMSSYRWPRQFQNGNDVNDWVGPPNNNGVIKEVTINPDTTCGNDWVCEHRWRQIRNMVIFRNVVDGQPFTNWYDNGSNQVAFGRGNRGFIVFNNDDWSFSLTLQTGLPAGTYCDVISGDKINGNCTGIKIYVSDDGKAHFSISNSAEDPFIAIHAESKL
- experiment_summary: enzyme kinetics (CNP-G3 hydrolysis), uncleaved bar′ fusion
pKi: −log10 of the molar value. Where no end group is shown, it is not given here.

binder	pKi
ESGNSCYIAHGVSGICKASCAEDEKAMAGMGVCEGHLCCYKTPW (other, not fully specified (N-terminus); ends and bridges not checked, Tested as uncleaved fusion; also called Y9A mutant of Helianthamide in bar′-Helianthamide fusion form) [Bar′-Y9A]	6.02
ESGNSCYIYAGVSGICKASCAEDEKAMAGMGVCEGHLCCYKTPW (other, not fully specified (N-terminus); ends and bridges not checked, Tested as uncleaved fusion; also called H10A mutant of Helianthamide in bar′-Helianthamide fusion form) [Bar′-H10A]	6.49
ESGNSCYIYHGVSGICKASCAEDEKAMAGMGVCEGHLCCYKTPW (other, not fully specified (N-terminus); ends and bridges not checked, Uncleaved fusion secreted from E. coli BL21*(DE3), purified on nickel; The text says that the junction is a TEV site; also called barnase′-helianthamide) [bar′-Helianthamide fusion]	7.70
ESGNSCAIYHGVSGICKASCAEDEKAMAGMGVCEGHLCCYKTPW (other, not fully specified (N-terminus); ends and bridges not checked, Tested as uncleaved fusion; also called Y7A mutant of Helianthamide in bar′-Helianthamide fusion form) [Bar′-Y7A]	6.97
